Tested on: red blood cells
Experiment: Lysis (hemolysis) assay
Format: cell-based
Settings: human erythrocytes, 1 hour, 37 °C, 1% DMSO
Can you tell me Lysis20 for the items I'm about to list?

[Q] Fill in Lysis20 for record CCC[n+]1c(-c2ccccc2)cc(-c2ccc(Br)cc2)cc1-c1ccccc1 [3b]
[A] >256 µM

[Q] Quote Lysis20 reported for Brc1ccc(-c2cc(-c3ccccc3)cc(-c3ccc(Br)cc3)[n+]2CCCCCCCCCC[n+]2c(-c3ccc(Br)cc3)cc(-c3ccccc3)cc2-c2ccc(Br)cc2)cc1 [1c] please.
[A] 27 µM

[Q] Item CCC[n+]1c(-c2ccc(Br)cc2)cc(-c2ccc(Br)cc2)cc1-c1ccc(Br)cc1 [3d] : provide Lysis20
[A] >256 µM

[Q] Supply reported Lysis20 belonging to this compound: CCCCCCCCCCCC[n+]1c(-c2ccccc2)cc(-c2ccc(Br)cc2)cc1-c1ccccc1 [2b]
[A] 26 µM

[Q] Read the entry CCC[n+]1c(-c2ccc(Br)cc2)cc(-c2ccccc2)cc1-c1ccc(Br)cc1 [3c] and write its reported Lysis20.
[A] >256 µM

[Q] For the compound CCCCCCCCCCCC[n+]1c(-c2ccc(Br)cc2)cc(-c2ccc(Br)cc2)cc1-c1ccc(Br)cc1 [2d] , report Lysis20.
[A] 42 µM

[Q] Tell me Lysis20 reported for CCCCCCCCCCCC[n+]1c(-c2ccccc2)cc(-c2ccccc2)cc1-c1ccccc1 [2a]
[A] 31 µM

[Q] State, in one line, measured Lysis20 of Brc1ccc(-c2cc(-c3ccccc3)[n+](CCCCCCCCCC[n+]3c(-c4ccccc4)cc(-c4ccc(Br)cc4)cc3-c3ccccc3)c(-c3ccccc3)c2)cc1 [1b]
[A] 20 µM

[Q] Read the entry CCC[n+]1c(-c2ccccc2)cc(-c2ccccc2)cc1-c1ccccc1 [3a] and write its reported Lysis20.
[A] >256 µM

[Q] Give the reported value of Lysis20 for this record: c1ccc(-c2cc(-c3ccccc3)[n+](CCCCCCCCCC[n+]3c(-c4ccccc4)cc(-c4ccccc4)cc3-c3ccccc3)c(-c3ccccc3)c2)cc1 [1a]
[A] 45 µM

[Q] // Input: Brc1ccc(-c2cc(-c3ccc(Br)cc3)[n+](CCCCCCCCCC[n+]3c(-c4ccc(Br)cc4)cc(-c4ccc(Br)cc4)cc3-c3ccc(Br)cc3)c(-c3ccc(Br)cc3)c2)cc1 [1d] . Output its Lysis20 only.
[A] >256 µM

[Q] State its Lysis20 for this compound: CCCCCCCCCCCC[n+]1c(-c2ccc(Br)cc2)cc(-c2ccccc2)cc1-c1ccc(Br)cc1 [2c]
[A] 26 µM
